# System: MYC protein expression in MCF-7 breast cancer cells
# experimentalProtocol: Western blotting of MYC protein level in MCF-7 cells
# Assay type: cell-based, human
# testSettings: Homo sapiens, MCF7; western blotting, MCF-7 cells, 0.5, 1, 2, and 4 μM, 24 hours; read-out: MYC Inhibition
# Method: MCF-7 cells were incubated with each compound at four concentrations (0.5, 1, 2, and 4 μM) for 24 hours, and the MYC protein levels were measured (FIG. 3A and FIGS. 12 A to 12 F). Cells were incubated at 37° C. with 5% CO2. The gels were cut into strips that contained the proteins of interest and transferred to nitrocellulose membrane (I323002, Invitrogen) using an iBlot 2 Dry Transfer Device (Invitrogen). […]
propertyLabel: minimal effective concentration (µM)
Hi! Could you send only the number? It should be in µM, unit omitted.

Use these answered entries as a reference point.
molecularString: CN(C)CCCn1c2c(c3ccc(-c4ccn[nH]4)cc3c1=O)C(=O)c1ccccc1-2
targetOrTestSystem: MYC protein expression in MCF-7 breast cancer cells
propertyLabel: minimal effective concentration
numericValue: 4
--
molecularString: COc1cc2c3c(n(CCCN4CCC(N)CC4)c(=O)c2cc1OC)-c1cc2c(cc1C3=O)OCO2
targetOrTestSystem: MYC protein expression in MCF-7 breast cancer cells
propertyLabel: minimal effective concentration
numericValue: 4
--
molecularString: COc1cc2c(=O)n(CCCN3CCOCC3)c3c(c2cc1OCCCN1CCCC1)C(=O)c1cc2c(cc1-3)OCO2
targetOrTestSystem: MYC protein expression in MCF-7 breast cancer cells
propertyLabel: minimal effective concentration
numericValue: 4

Record summary for COc1ccc2c(c1)C(=O)c1c-2n(CCCN2CCOCC2)c(=O)c2ccccc12 : reported minimal effective concentration = 2

Reported minimal effective concentration for CN(C)CCCn1c2c(c3cccnc3c1=O)C(=O)c1ccccc1-2 was 4

The recorded minimal effective concentration for COc1cc2c3c(n(CCCNC4=NCCS4)c(=O)c2cc1OC)-c1cc2c(cc1C3=O)OCO2 is 2
